In this section, each of the compounds is paired with its reported inhibition at 5 µM.
Tested on: vessel development of the FLK1-GFP transgenic danio rerio
run-description: Inhibition test on vascular development of Danio rerio
Assay type: in vivo
assay-setup: Danio rerio; 5 μM, after 24 hours, n = 5; read-out: inhibition rate on the development of vertebral vessel
Hi! Could you send only the number? It should be in %, unit omitted.

Solved cases below.
> print(dat)
                                   compound                            assayed.system  recorded.measurement
1  Nc1nccc(Oc2ccc3c(C(=O)Nc4cccc(C(F)(F)F)c4)cccc3n2)n1  vessel development of the FLK1-GFP transgenic danio rerio                   100
2  Nc1cc(Oc2ccc3c(C(=O)Nc4cccc(C(F)(F)F)c4)cccc3n2)ncn1  vessel development of the FLK1-GFP transgenic danio rerio                   100
3  O=C(Nc1cccc(C(F)(F)F)c1)c1cccc2nc(Oc3ncnc4c3CCNC4)ccc12  vessel development of the FLK1-GFP transgenic danio rerio                     0
4  CNCc1cc(Oc2ccc3c(C(=O)Nc4cccc(C(F)(F)F)c4)cccc3n2)ncn1  vessel development of the FLK1-GFP transgenic danio rerio                     0
5  Cc1ccc(Nc2nccc(N(C)c3ccc4c(C)n(C)nc4c3)n2)cc1S(N)(=O)=O [Compound 130B, Pazopanib, reference compound]  vessel development of the FLK1-GFP transgenic danio rerio                    85

As a next step, examine the compound that follows.
[Q] Tell me reported inhibition at 5 µM for "O=C(Nc1cccc(C(F)(F)F)c1)c1cccc2nc(Oc3ncnc4c3CNC4)ccc12" , tested with vessel development of the FLK1-GFP transgenic danio rerio.
[A] 10

* * *

assayed-system: PDGFR-β (Homo sapiens)
Construct: purchased Upstate
Sequence (P09619 33-1106, species assumed): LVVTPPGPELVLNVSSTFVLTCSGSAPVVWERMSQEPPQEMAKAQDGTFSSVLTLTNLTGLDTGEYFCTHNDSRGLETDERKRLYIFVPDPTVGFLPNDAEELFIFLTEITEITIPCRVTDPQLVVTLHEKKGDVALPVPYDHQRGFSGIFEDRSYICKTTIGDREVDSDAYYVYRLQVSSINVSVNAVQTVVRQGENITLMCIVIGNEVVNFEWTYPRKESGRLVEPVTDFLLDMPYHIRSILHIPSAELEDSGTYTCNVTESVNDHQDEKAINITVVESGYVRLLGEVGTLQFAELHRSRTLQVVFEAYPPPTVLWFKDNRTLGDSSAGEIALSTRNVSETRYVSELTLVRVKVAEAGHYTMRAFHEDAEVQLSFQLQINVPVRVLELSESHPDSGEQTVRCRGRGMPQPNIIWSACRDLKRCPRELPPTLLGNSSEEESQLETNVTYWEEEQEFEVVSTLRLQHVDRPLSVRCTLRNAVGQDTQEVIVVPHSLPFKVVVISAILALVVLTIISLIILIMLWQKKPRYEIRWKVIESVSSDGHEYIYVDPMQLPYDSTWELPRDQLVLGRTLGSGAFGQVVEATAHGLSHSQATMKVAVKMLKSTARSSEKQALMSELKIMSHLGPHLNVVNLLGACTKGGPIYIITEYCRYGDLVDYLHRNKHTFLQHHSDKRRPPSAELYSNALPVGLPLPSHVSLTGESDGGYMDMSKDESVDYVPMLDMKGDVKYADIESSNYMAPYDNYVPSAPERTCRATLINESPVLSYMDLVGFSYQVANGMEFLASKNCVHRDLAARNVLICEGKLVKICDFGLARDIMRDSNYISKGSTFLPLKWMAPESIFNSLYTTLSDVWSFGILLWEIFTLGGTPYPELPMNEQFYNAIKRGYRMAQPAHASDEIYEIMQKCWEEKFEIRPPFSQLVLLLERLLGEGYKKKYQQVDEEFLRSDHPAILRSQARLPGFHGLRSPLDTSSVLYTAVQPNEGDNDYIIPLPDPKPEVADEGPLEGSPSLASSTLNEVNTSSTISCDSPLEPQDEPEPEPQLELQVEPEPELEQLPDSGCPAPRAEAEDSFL
run-description: Kinase inhibition dosage effect, PDGFR-β
Type: biochemical
assay-setup: [ATP] 30 μM, 3 hr
In this section, each of the molecules is paired with its reported IC50.
Hi! Could you send only the number? It should be in µM, unit omitted.

> print(dat)
                  compound.structure.string          assayed.system  unit.label  recorded.measurement
1  Nc1nccc(Oc2ccc3c(C(=O)Nc4cccc(C(F)(F)F)c4)cccc3n2)n1  PDGFR-β (Homo sapiens)          µM                  0.15

As a next step, examine the molecule that follows.
[Q] Consider the molecule shown here: "Nc1cc(Oc2ccc3c(C(=O)Nc4cccc(C(F)(F)F)c4)cccc3n2)ncn1" What is its recorded IC50?
[A] 1.94

* * *

In this section, each of the molecules is paired with its reported inhibition at 40 µM.
Test system: vessel development of the FLK1-GFP transgenic danio rerio
run-description: Inhibition test on vascular development of Danio rerio
Type: in vivo
assay-setup: Danio rerio; 40 μM, after 24 hours, n = 5; read-out: inhibition rate on the development of vertebral vessel
Hi! Could you send only the number? It should be in %, unit omitted.

Solved cases below.
> print(dat)
                                   molecule                            assayed.system       property.label  recorded.measurement
1  Cc1ccc(Nc2nccc(N(C)c3ccc4c(C)n(C)nc4c3)n2)cc1S(N)(=O)=O [Compound 130B, Pazopanib, reference compound]  vessel development of the FLK1-GFP transgenic danio rerio  inhibition at 40 µM                    95
2  O=C(Nc1cccc(C(F)(F)F)c1)c1cccc2nc(Oc3ncnc4c3CNC4)ccc12  vessel development of the FLK1-GFP transgenic danio rerio  inhibition at 40 µM                   100
3  CNCc1cc(Oc2ccc3c(C(=O)Nc4cccc(C(F)(F)F)c4)cccc3n2)ncn1  vessel development of the FLK1-GFP transgenic danio rerio  inhibition at 40 µM                    25
4  O=C(Nc1cccc(C(F)(F)F)c1)c1cccc2nc(Oc3ncnc4c3CCNC4)ccc12  vessel development of the FLK1-GFP transgenic danio rerio  inhibition at 40 µM                     5
5  Nc1cc(Oc2ccc3c(C(=O)Nc4cccc(C(F)(F)F)c4)cccc3n2)ncn1  vessel development of the FLK1-GFP transgenic danio rerio  inhibition at 40 µM                   100

As a next step, examine the molecule that follows.
[Q] Tell me reported inhibition at 40 µM for "Nc1nccc(Oc2ccc3c(C(=O)Nc4cccc(C(F)(F)F)c4)cccc3n2)n1" , tested with vessel development of the FLK1-GFP transgenic danio rerio.
[A] 100
